target: DRB1*0802 (DR8w2) (Homo sapiens, UniProt P01903+P01911, A100R/A103L/A169T/F76Y/H45Y/I96F/K41T/L162R/M171V/P40S/Q125H/Q178H/Q39Y/Q99D/R218S/R42G/S66Y/V115G/W38E); assay: HLA class II peptide binding assay, purified HLA; conditions: Table XIX, DR supermotif peptides; unit not given

{"MOL": "CC[C@H](C)[C@H](NC(=O)[C@H](CCSC)NC(=O)[C@H](Cc1ccc(O)cc1)NC(=O)[C@@H](NC(=O)[C@H](CC(=O)O)NC(=O)[C@@H](NC(=O)[C@@H](NC(=O)[C@H](CS)NC(=O)[C@@H](NC(=O)[C@@H]1CCCN1C(=O)[C@@H]1CCCN1C(=O)[C@@H](N)CCC(N)=O)[C@@H](C)CC)[C@@H](C)O)[C@@H](C)CC)C(C)C)C(=O)N[C@@H](CCSC)C(=O)N[C@H](C(=O)N[C@@H](CCCCN)C(=O)O)C(C)C", "DR8w2 binding data": 0.0051}
{"MOL": "CSCC[C@H](NC(=O)[C@@H](NC(=O)[C@H](Cc1ccc(O)cc1)NC(=O)[C@H](C)NC(=O)[C@H](CCC(=O)O)NC(=O)[C@@H](N)CC(=O)O)C(C)C)C(=O)N[C@@H](C)C(=O)NCC(=O)N[C@H](C(=O)NCC(=O)N[C@@H](CO)C(=O)N1CCC[C@H]1C(=O)N[C@@H](Cc1ccc(O)cc1)C(=O)N[C@H](C(=O)N[C@@H](CO)C(=O)O)C(C)C)C(C)C", "DR8w2 binding data": 0.0570}
{"MOL": "CC[C@H](C)[C@H](NC(=O)CNC(=O)[C@H](Cc1ccccc1)NC(=O)[C@@H](NC(=O)[C@@H](NC(=O)CNC(=O)[C@H](CC(C)C)NC(=O)[C@@H](N)C(C)C)C(C)C)C(C)C)C(=O)N[C@@H](CC(C)C)C(=O)N[C@H](C(=O)N[C@@H](CCCCN)C(=O)N[C@@H](CCCNC(=N)N)C(=O)N[C@@H](CCCNC(=N)N)C(=O)N[C@@H](CCC(N)=O)C(=O)N[C@@H](CCC(N)=O)C(=O)O)[C@@H](C)CC", "DR8w2 binding data": 0.6400}
{"MOL": "CC[C@H](C)[C@H](NC(=O)[C@H](CCSC)NC(=O)[C@H](Cc1c[nH]c2ccccc12)NC(=O)[C@H](CS)NC(=O)[C@H](CCCCN)NC(=O)[C@@H](NC(=O)[C@H](CCSC)NC(=O)[C@@H](NC(=O)[C@H](CCSC)NC(=O)[C@H](Cc1ccc(O)cc1)NC(=O)[C@@H](NC(=O)[C@@H](N)CC(=O)O)C(C)C)[C@@H](C)CC)C(C)C)C(=O)N[C@@H](CC(=O)O)C(=O)N[C@@H](CO)C(=O)N[C@@H](CCC(=O)O)C(=O)O", "DR8w2 binding data": 0.0450}
{"MOL": "CC[C@H](C)[C@H](NC(=O)[C@H](CCC(N)=O)NC(=O)[C@H](CCSC)NC(=O)[C@H](CS)NC(=O)[C@H](Cc1c[nH]c2ccccc12)NC(=O)[C@H](CC(N)=O)NC(=O)[C@H](CC(C)C)NC(=O)[C@@H](N)CC(C)C)C(=O)N[C@@H](C)C(=O)N[C@@H](CCCCN)C(=O)NCC(=O)N[C@@H](CCSC)C(=O)N[C@@H](CO)C(=O)N[C@@H](Cc1ccc(O)cc1)C(=O)N[C@@H](CC(C)C)C(=O)O", "DR8w2 binding data": 0.4100}

====

target: HLA-B*0702 (Homo sapiens, UniProt P01889); format: binding; details: Table XXIV, B7 supermotif peptides

{"MOL": "CC[C@H](C)[C@H](NC(=O)[C@@H](NC(=O)[C@H](Cc1c[nH]cn1)NC(=O)[C@H](CC(C)C)NC(=O)[C@H](CC(C)C)NC(=O)[C@H](C)NC(=O)[C@H](CCC(N)=O)NC(=O)[C@H](Cc1c[nH]cn1)NC(=O)[C@@H]1CCCN1C(=O)[C@@H](N)Cc1ccccc1)[C@@H](C)O)C(=O)O", "IC50": "86 nM"}
{"MOL": "CC[C@H](C)[C@H](NC(=O)[C@H](Cc1ccccc1)NC(=O)[C@H](CO)NC(=O)[C@H](CC(C)C)NC(=O)[C@H](CO)NC(=O)[C@H](C)NC(=O)[C@H](CC(N)=O)NC(=O)[C@@H](NC(=O)[C@@H]1CCCN1C(=O)[C@@H](N)Cc1ccccc1)[C@@H](C)O)C(=O)O", "IC50": "120 nM"}
{"MOL": "CC(C)C[C@H](NC(=O)[C@@H]1CCCN1C(=O)[C@H](CO)NC(=O)[C@@H]1CCCN1C(=O)[C@H](CC(=O)O)NC(=O)[C@H](Cc1c[nH]cn1)NC(=O)[C@@H](NC(=O)[C@@H]1CCCN1C(=O)[C@@H](N)Cc1ccccc1)[C@@H](C)O)C(=O)O", "IC50": "10 nM"}
{"MOL": "CC[C@H](C)[C@H](NC(=O)[C@@H](NC(=O)[C@H](C)NC(=O)[C@H](CO)NC(=O)[C@@H](NC(=O)[C@@H](NC(=O)[C@H](CO)NC(=O)[C@@H](NC(=O)[C@H](CC(C)C)NC(=O)[C@@H]1CCCN1C(=O)[C@@H](N)Cc1ccccc1)[C@@H](C)O)[C@@H](C)CC)[C@@H](C)CC)C(C)C)C(=O)O", "IC50": "367 nM"}
{"MOL": "CC[C@H](C)[C@H](NC(=O)[C@H](C)NC(=O)[C@H](CCSC)NC(=O)[C@H](Cc1c[nH]c2ccccc12)NC(=O)[C@H](CCCCN)NC(=O)[C@@H](NC(=O)[C@@H]1CCCN1C(=O)[C@@H](N)Cc1ccccc1)[C@@H](C)CC)C(=O)O", "IC50": "22 nM"}
{"MOL": "CC(C)C[C@H](NC(=O)[C@@H]1CCCN1C(=O)[C@@H](N)Cc1ccccc1)C(=O)N1CCC[C@H]1C(=O)N[C@@H](C)C(=O)N[C@@H](C)C(=O)N[C@@H](CCCNC(=N)N)C(=O)N1CCC[C@H]1C(=O)N[C@@H](C)C(=O)O", "IC50": "34 nM"}
{"MOL": "CC(C)C[C@H](NC(=O)[C@@H](NC(=O)[C@H](C)NC(=O)CNC(=O)[C@H](C)NC(=O)[C@@H]1CCCN1C(=O)[C@H](CCCNC(=N)N)NC(=O)[C@H](C)NC(=O)[C@H](C)NC(=O)[C@@H]1CCCN1C(=O)[C@@H](N)Cc1ccccc1)[C@@H](C)O)C(=O)O", "IC50": "3.9 nM"}
{"MOL": "CC[C@H](C)[C@H](NC(=O)[C@@H](NC(=O)[C@H](CCCNC(=N)N)NC(=O)[C@H](CCSC)NC(=O)[C@H](CCC(N)=O)NC(=O)[C@H](C)NC(=O)[C@H](CCC(N)=O)NC(=O)[C@H](CC(N)=O)NC(=O)[C@@H]1CCCN1C(=O)[C@@H](N)Cc1ccccc1)[C@@H](C)CC)C(=O)O", "IC50": "290 nM"}

====

system: HLA-DR molecules (DR1, DR4w4, DR7, DRB5*0101, DRB1*1501, DRB1*1101, DRB1*0802, DRB1*1302); test: DR supertype cross-reactive binding; design: species or system human; details: number of DR1, DR4w4, DR7 bound, Table XXIX

{"MOL": "CC[C@H](C)[C@H](NC(=O)CNC(=O)[C@H](CC(C)C)NC(=O)[C@H](CC(C)C)NC(=O)[C@H](CCCNC(=N)N)NC(=O)[C@@H](N)CO)C(=O)N[C@@H](CS)C(=O)N[C@@H](CC(C)C)C(=O)N[C@H](C(=O)N[C@@H](CO)C(=O)N[C@H](C(=O)N[C@H](C(=O)N[C@@H](CCC(N)=O)C(=O)N[C@@H](CC(C)C)C(=O)N[C@H](C(=O)O)C(C)C)C(C)C)[C@@H](C)O)[C@@H](C)O", "DR147 Binding": 3}
{"MOL": "CC(C)C[C@H](NC(=O)[C@H](CO)NC(=O)[C@H](C)NC(=O)[C@H](CC(N)=O)NC(=O)[C@@H](NC(=O)[C@@H]1CCCN1C(=O)[C@H](CC(C)C)NC(=O)[C@H](Cc1ccc(O)cc1)NC(=O)[C@@H](NC(=O)[C@H](CC(C)C)NC(=O)[C@H](CCC(=O)O)NC(=O)[C@H](CC(C)C)NC(=O)[C@@H](N)CC(N)=O)[C@@H](C)O)[C@@H](C)O)C(=O)N[C@@H](CO)C(=O)N[C@@H](Cc1ccccc1)C(=O)O", "DR147 Binding": 3}
{"MOL": "CSCC[C@H](NC(=O)[C@H](CC(C)C)NC(=O)[C@H](CCC(N)=O)NC(=O)[C@@H](NC(=O)[C@@H](NC(=O)[C@H](CC(C)C)NC(=O)[C@H](CCC(N)=O)NC(=O)[C@@H](NC(=O)[C@@H](N)[C@@H](C)O)C(C)C)C(C)C)[C@@H](C)O)C(=O)N1CCC[C@H]1C(=O)N[C@@H](Cc1ccc(O)cc1)C(=O)NCC(=O)N[C@@H](CS)C(=O)N[C@@H](CC(C)C)C(=O)N[C@@H](CC(C)C)C(=O)O", "DR147 Binding": 2}
{"MOL": "CC[C@H](C)[C@H](NC(=O)CNC(=O)[C@@H](NC(=O)[C@@H](NC(=O)[C@H](C)NC(=O)[C@H](CO)NC(=O)[C@@H](NC(=O)[C@@H](NC(=O)[C@H](CO)NC(=O)[C@@H](NC(=O)[C@H](CC(C)C)NC(=O)[C@@H]1CCCN1C(=O)[C@H](CO)NC(=O)[C@H](C)N)[C@@H](C)O)[C@@H](C)CC)[C@@H](C)CC)C(C)C)C(C)C)C(=O)N[C@@H](CC(C)C)C(=O)O", "DR147 Binding": 2}
{"MOL": "CC[C@H](C)[C@H](NC(=O)CNC(=O)[C@H](Cc1ccccc1)NC(=O)[C@@H](NC(=O)[C@@H](NC(=O)CNC(=O)[C@H](CC(C)C)NC(=O)[C@@H](N)C(C)C)C(C)C)C(C)C)C(=O)N[C@@H](CC(C)C)C(=O)N[C@H](C(=O)N[C@@H](CCCCN)C(=O)N[C@@H](CCCNC(=N)N)C(=O)N[C@@H](CCCNC(=N)N)C(=O)N[C@@H](CCC(N)=O)C(=O)N[C@@H](CCC(N)=O)C(=O)O)[C@@H](C)CC", "DR147 Binding": 2}
{"MOL": "CC(C)C[C@H](NC(=O)[C@H](CO)NC(=O)[C@H](C)NC(=O)[C@H](CC(N)=O)NC(=O)[C@@H](NC(=O)[C@@H]1CCCN1C(=O)[C@H](CC(C)C)NC(=O)[C@H](Cc1ccc(O)cc1)NC(=O)[C@@H](NC(=O)[C@@H](N)CC(C)C)[C@@H](C)O)[C@@H](C)O)C(=O)N[C@@H](CO)C(=O)N[C@@H](Cc1ccccc1)C(=O)N[C@@H](CC(C)C)C(=O)N[C@@H](CCC(N)=O)C(=O)N[C@@H](CC(=O)O)C(=O)O", "DR147 Binding": 3}
